Target: Fc-fusion protein of human PSMA (hPSMA-Fc) (Homo sapiens)
Construct: purchased Acro Biosystems PSA-H5264
Sequence (Q04609 44-750 limits assumed): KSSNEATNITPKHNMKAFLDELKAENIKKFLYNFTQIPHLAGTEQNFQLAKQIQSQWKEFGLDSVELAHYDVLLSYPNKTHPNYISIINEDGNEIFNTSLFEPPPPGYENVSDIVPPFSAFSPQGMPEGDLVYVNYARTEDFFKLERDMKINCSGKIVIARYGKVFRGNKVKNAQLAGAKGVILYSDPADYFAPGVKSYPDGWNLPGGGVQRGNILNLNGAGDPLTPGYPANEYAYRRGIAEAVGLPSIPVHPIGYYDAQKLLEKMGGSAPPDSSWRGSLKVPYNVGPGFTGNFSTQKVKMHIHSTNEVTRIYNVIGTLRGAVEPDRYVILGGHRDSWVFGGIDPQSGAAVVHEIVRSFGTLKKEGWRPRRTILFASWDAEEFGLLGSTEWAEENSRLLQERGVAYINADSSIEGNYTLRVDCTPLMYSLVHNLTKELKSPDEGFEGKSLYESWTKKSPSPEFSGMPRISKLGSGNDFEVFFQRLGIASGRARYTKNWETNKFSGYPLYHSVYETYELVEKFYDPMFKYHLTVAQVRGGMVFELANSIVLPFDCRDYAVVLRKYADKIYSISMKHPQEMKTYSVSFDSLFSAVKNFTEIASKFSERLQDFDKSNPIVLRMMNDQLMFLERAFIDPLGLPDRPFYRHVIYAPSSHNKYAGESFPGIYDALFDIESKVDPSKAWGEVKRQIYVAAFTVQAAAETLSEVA
Assay: Surface plasmon resonance assay (Biacore T200, single cycle kinetic)
Type: binding
Conditions: pKD category for PSMA SPR activity assay, hPSMA-Fc, 25° C.; read-out: pKD CAT (converted)
Numbered stars: 1 amine (or outer) side, 2 acyl side, 3 side chain; on linkers, the order of the positions; unused ones are H or OH. Bridge positions count the residues as written; N and C are the ends. Square brackets hold non-standard residues; d marks the D form. Peptide text beside a SMILES is read from it. * marks the point of attachment. DOTA = O=C(O)CN1CCN(CC(=O)O)CCN(CC(=O)*)CCN(CC(=O)O)CC1; Lys(Me3) = C[N+](C)(C)CCCC[C@H](N)C(=O)O; Phe(4-Cl) = N[C@@H](Cc1ccc(Cl)cc1)C(=O)O; Arg(Me) = CNC(=N)NCCC[C@H](N)C(=O)O; X1 = O=C(CC1CCN([*:1])CC1)[*:2]; Thr(ol) = C[C@@H](O)[C@H](N)CO; Tle = CC(C)(C)[C@H](N)C(=O)O; Aib = CC(C)(N)C(=O)O
Documented Kd across a set of compounds
parameter: Kd

{"compound": "CNC(=N)NCCC[C@@H]1NC(=O)[C@H](CCCC[N+](C)(C)C)NC(=O)[C@@H](NC(=O)[C@H](Cc2ccc(Cl)cc2)NC(=O)C(C)(C)NC(=O)[C@@H](NC(=O)CC2CCN(C(=O)CN3CCN(CC(=O)O)CCN(CC(=O)O)CCN(CC(=O)O)CC3)CC2)[C@@H](C)O)CSSC[C@@H](C(=O)N[C@H](C(=O)N[C@H](C(N)=O)[C@@H](C)O)C(C)(C)C)NC(=O)[C@H](CC(N)=O)NC(=O)C(C)(C)NC1=O [PSM-0483] ({DOTA}-[X1]T[Aib][Phe(4-Cl)]C[Lys(Me3)][Arg(Me)][Aib]NC[Tle]T-NH2; disulfide 5-10)", "parameter": "Kd", "measured.result": "12.6 to 126 nM"}
{"compound": "CC(=O)N[C@H](C(=O)NC(C)(C)C(=O)N[C@@H](Cc1ccc(Cl)cc1)C(=O)N[C@H]1CSSC[C@@H](C(=O)N[C@H](C(=O)N[C@H](CO)[C@@H](C)O)C(C)(C)C)NC(=O)[C@H](CC(N)=O)NC(=O)C(C)(C)NC(=O)[C@H](CCCNC(=N)N)NC(=O)[C@H](CCCCN)NC1=O)[C@@H](C)O [PSM-0554] (Ac-T[Aib][Phe(4-Cl)]CKR[Aib]NC[Tle][Thr(ol)]; disulfide 4-9)", "parameter": "Kd", "measured.result": "< 12.6 nM"}

Origin of measurements: patent US20260083865A1
